# Test system: HCT-116 colon
# Experimental protocol: NCI-60 one-dose screen, 48 h
# Conditions used: 10 µM unless noted
Compounds without any hit were thinned out: in the full panel of roughly 83,000, 20% have a hit. Activity calls are given as the source filed them. How the source made its calls: active means growth percent below 10; inactive means the rest.
Outcomes: active, inactive

{"columns": ["Compound", "Assigned label"],
 "data": [
  ["O=[N+]([O-])c1ccc(-c2cn3nc(-c4c[nH]c5ccccc45)sc3n2)cc1", "inactive"],
  ["O=C1Nc2ccccc2C1(c1c[nH]c2ccccc12)c1c[nH]c2ccccc12", "inactive"],
  ["CCCCNc1cc(-c2cn[nH]c2-c2cc(C)cc(OC)c2)nc(-c2cccnc2)n1", "inactive"],
  ["CC(=C(c1ccc(OCCN2CCCCC2)cc1)c1ccc(OCCN2CCCCC2)cc1)c1ccc(Cl)cc1", "active"],
  ["CCN1C(=O)N(CC)C2Nn3c(s/c(=C\\c4ccccc4Br)c3=O)=NC21 (configuration not stated)", "inactive"],
  ["CCNC(=O)Oc1ccc(/C(=C(/CC)Cc2ccccc2)c2ccc(OCCN3CCCC3)cc2)cc1", "inactive"],
  ["CS(=O)(=O)Nc1cc(-c2ccc3ncc(C#N)c(Nc4ccc(F)c(Cl)c4)c3c2)cnc1Cl", "active"],
  ["COc1ccc(C(=S)N2CCN(c3ccc(Cl)cc3)CC2)cc1", "inactive"],
  ["N#Cc1c(Nc2ccc(N3CCOCC3)cc2)nc(SCC(=O)c2ccc(Br)cc2)nc1-c1ccccc1", "inactive"],
  ["COc1ccc(/C(C)=C(\\c2ccc(Cl)cc2)c2ccc(OCCN3CCCCC3)cc2)cc1", "inactive"],
  ["O=C(CCl)NNc1nccc(Nc2ccc(S(=O)(=O)Nc3ccncc3)cc2)n1", "inactive"],
  ["O=C1/C(=C\\c2ccccn2)c2ccccc2N1c1c(Cl)cccc1Cl", "active"],
  ["CC1=C2[C@@H](CC1)[C@]1(C)O[C@@](C3CCCCC3)(C[C@H]1OC(=O)CO)[C@H]2OC(=O)/C=C/c1ccccc1", "inactive"],
  ["CCn1c(-c2cc3c([nH]c4ccccc43)c(-c3cccc(O)c3)n2)n[nH]c1=S", "inactive"],
  ["O=C1/C(=C/c2ccc(O)c(O)c2)COc2ccc(-c3ccccc3)cc21", "inactive"],
  ["COc1ccc(C(=O)N2c3ccccc3Sc3ccccc32)c(C(F)(F)F)c1", "active"],
  ["C=C1C(=O)O[C@H]2[C@H]1CC/C(COC(=O)/C=C\\C(=O)NCc1ccc(Cn3c(=O)sn(CCCl)c3=O)cc1)=C\\CC[C@@]1(C)O[C@@H]21", "inactive"],
  ["COc1cccc(CCNc2ncnc3c2ncn3Cc2nnc3c4ccccc4c(Cl)nn23)c1", "inactive"],
  ["NC(=O)c1c(NC(=O)c2cccc(C(F)(F)F)c2)sc2c1CCC(=O)C2", "active"],
  ["O=C(C1CCCCC1)[C@@H]1[C@]2(C(=O)NC3CCCCC32)[C@@H]2CCCN2[C@@]12C(=O)NC1CCC(Cl)CC12 (some centres not stated)", "active"],
  ["Cn1cc(-c2ccc(-c3cn(C)c4ccc(Cl)cc34)[nH]2)c2cc(Cl)ccc21", "active"],
  ["CCOC(=O)c1[nH]c2c(c1C)-c1[nH]c(=O)c(S(=O)(=O)c3ccccc3)cc1SC2", "inactive"],
  ["O=C1c2ccccc2C(=O)c2c1c(C(=O)NCc1ccccc1)c1ccccn21", "inactive"],
  ["CC(C)(C)n1cc(-c2ccnc(NCCCNS(=O)(=O)c3cccc4ccccc34)c2)c(-c2cccc(F)c2)n1", "inactive"],
  ["COC(=O)c1nc(-c2ccccc2)oc1S(=O)(=O)NCC(c1ccc(Cl)cc1)N1CCOCC1 (configuration not stated)", "inactive"],
  ["COc1ccc(-c2ccc(-c3ccc(C(=N)N)nc3)s2)cc1Cl", "active"],
  ["Cc1nnc(-c2ccc3c(c2)nc(/C=C/c2ccccc2)n3C2CCCCC2)o1", "inactive"],
  ["COc1ccc2cc(-c3ccnc4c(N=Nc5ccc(Cl)cc5)c(N)nn34)ccc2c1", "inactive"],
  ["CC(=O)O[C@H]1C[C@@H]2C(C)(C)C(=O)CC[C@@]2(C)c2ccc(C(C)C)cc21", "inactive"],
  ["O=C(/C=C/C12c3ccccc3C(c3ccccc31)C1C(=O)NC(=O)C12)c1ccc(Br)cc1 (configuration not stated)", "inactive"],
  ["FC(F)(F)c1ccc(Cn2cc(CSc3nc4ccccc4s3)nn2)cc1", "inactive"],
  ["O=C(N/N=C\\c1cccc([N+](=O)[O-])c1)N/N=C/c1cccc([N+](=O)[O-])c1", "inactive"],
  ["Nc1[nH]n2cc(-c3ccc(F)cc3)nc2c1N=Nc1ccc(S(N)(=O)=O)cc1", "inactive"],
  ["O=C(Cc1ccc(/C=C/C(=O)c2ncc[nH]2)cc1)Nc1cc(C(F)(F)F)cc(C(F)(F)F)c1", "active"],
  ["COc1ccc(Cn2cc3c(c2-c2ccccc2)CCc2cnoc2-3)cc1", "active"],
  ["CCN1C2CCC1/C(=C\\c1ccc(F)cc1)C(=O)/C2=C/c1ccc(F)cc1", "active"],
  ["CC1(C)CC[C@]2(CO)CC[C@]3(C)[C@H](CC[C@@H]4[C@@]5(C)CCCNC(C)(C)[C@@H]5CC[C@]43C)[C@H]2[C@H]1O", "inactive"]
]}
